- Test system: SF-268 CNS
- protocol text: NCI-60 one-dose screen, 48 h (100 = growth as untreated, 0 = no growth, -100 = all killed)
- condition context: 10 µM unless noted
The panel holds about 83,000 compounds, 20% with a hit somewhere; the sample as a whole holds those more often.
reported property: growth (%)
Answer format: numeric, % implied, no suffix.

Worked set:
- CC12CCC3c4ccccc4CCC3(CO1)C2 (stereo unspecified): 107
- CC(=O)[C@@H]1CCC=C2CC[C@]3(C)[C@@H](CC[C@@H]4[C@@]5(C)CCCNC(C)(C)[C@@H]5CC[C@]43C)[C@H]21: 12.3
- CCSc1nc(NC)c2cc(-c3ccc(C(F)(F)F)cc3)ccc2n1: 103

Ask: Provide only the value of recorded growth for "CC(C)OC(=O)c1ccc2[nH]c(O)c(C(=Nc3ccc(N(C)C(=O)CN4CCN(C)CC4)cc3)c3ccccc3)c2c1"
Reply: -32.7

Ask: Quick one: give measured growth for "O=C1c2cccc3cccc(c23)C(=O)N1N1C(=O)c2cccc3c(N4CCOCC4)ccc(c23)C1=O"
Reply: 96.2

Ask: Return the recorded growth value; entry: "CNC(=O)c1c(NC(=O)c2ccc(C(F)(F)F)cc2)sc2c1CCC(=O)C2"
Reply: 9.61

Ask: Specify growth for Nc1c(C(=O)Nc2ccccc2Cl)sc2nc3c(cc12)C(O)CCC3 (stereo unspecified) and stop.
Reply: 65.6
